Just for reference, the Human Domainome abundance scans (Beltran et al. 2025) is where these values come from.

B1: DnaJ homolog subfamily C member 5, residues 16 to 77; numbered along this chain, Q9H3Z4 (parent)
chain: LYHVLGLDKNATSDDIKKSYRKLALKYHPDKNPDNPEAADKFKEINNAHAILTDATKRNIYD

variants of: B1; assay: abundance fitness (aPCA) (normalised: wild type 0, dead -1); higher = more abundant; growth selection in yeast, the domain comes from the species named; conditions: Homo sapiens
Class class 1: abundance fitness at least -0.2. Class class 0: abundance fitness below -0.2.

1. A50H	class 0
2. I60H	class 1
3. P33L	class 0
4. A50L	class 0
5. Y2F	class 0
6. I16W	class 0
7. G6Y	class 0
8. S19F	class 0
9. I60S	class 1
10. Y27S	class 0
11. D34Y	class 0
12. Y61V	class 1
13. A39Y	class 1
14. Y2C	class 0
15. L25V	class 1
16. D54K	class 1
17. Y27F	class 1
18. K43G	class 1
